Target: T1, human mesotrypsin (catalytically active) (human, UniProt P35030 81-304)
T1 sequence (looked up): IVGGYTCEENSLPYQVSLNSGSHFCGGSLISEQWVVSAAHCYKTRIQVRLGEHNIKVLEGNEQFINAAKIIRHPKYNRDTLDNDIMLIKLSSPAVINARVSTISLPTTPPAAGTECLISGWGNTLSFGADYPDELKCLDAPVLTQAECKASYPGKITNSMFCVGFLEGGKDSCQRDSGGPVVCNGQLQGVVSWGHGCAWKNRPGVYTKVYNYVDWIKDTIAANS
Assay: cell-based or functional assay
propertyMeasured: Kcat (s^-1) of hydrolysis of APPI by mesotrypsin (HPLC time course) (s⁻¹)
Record the value in s⁻¹, omitting the unit from your answer.

>  <binder>
APPI-M17G (SEQ ID NO: 18), soluble (designed binder, not shown: AvrII site residues and C-terminal HIS6 tag) EVCSEQAETGPCRAGISRWYFDVTEGKCAPFFYGGCGGNRNNFDTEEYCMAVCGSAI

>  <unitAnnotation>
s⁻¹

>  <quantitativeReadout>
0.0156

$$$$

Query: Look up Kcat (s^-1) of hydrolysis of APPI by mesotrypsin (HPLC time course): APPI-I18F/F34V (SEQ ID NO: 20), soluble (designed binder, not shown: AvrII site residues and C-terminal HIS6 tag) EVCSEQAETGPCRAMFSRWYFDVTEGKCAPFVYGGCGGNRNNFDTEEYCMAVCGSAI
Reply: 0.00535

Query: Give the measured Kcat (s^-1) of hydrolysis of APPI by mesotrypsin (HPLC time course) of APPI-F34V (SEQ ID NO: 23), soluble (designed binder, Variants were subcloned between EcoRI and AvrII of the APPI-WT pPIC9K template; not shown: AvrII site residues and C-terminal HIS6 tag) EVCSEQAETGPCRAMISRWYFDVTEGKCAPFVYGGCGGNRNNFDTEEYCMAVCGSAI .
Reply: 0.0161

Query: // lookup Kcat (s^-1) of hydrolysis of APPI by mesotrypsin (HPLC time course) for APPI-I18F (SEQ ID NO: 19), soluble (designed binder, not shown: AvrII site residues and C-terminal HIS6 tag) EVCSEQAETGPCRAMFSRWYFDVTEGKCAPFFYGGCGGNRNNFDTEEYCMAVCGSAI
Reply: 0.0104

Query: // lookup Kcat (s^-1) of hydrolysis of APPI by mesotrypsin (HPLC time course) for APPI-M17G/F34V (SEQ ID NO: 21), soluble (designed binder, not shown: AvrII site residues and C-terminal HIS6 tag) EVCSEQAETGPCRAGISRWYFDVTEGKCAPFVYGGCGGNRNNFDTEEYCMAVCGSAI
Reply: 0.00371

Query: Need Kcat (s^-1) of hydrolysis of APPI by mesotrypsin (HPLC time course), item APPI-M17G/I18F (SEQ ID NO: 22), soluble (designed binder, not shown: AvrII site residues and C-terminal HIS6 tag) EVCSEQAETGPCRAGFSRWYFDVTEGKCAPFFYGGCGGNRNNFDTEEYCMAVCGSAI
Reply: 0.00291

Query: Give its Kcat (s^-1) of hydrolysis of APPI by mesotrypsin (HPLC time course) value. Item: APPI-M17G/I18F/F34V (SEQ ID NO: 8), soluble (designed binder, also called APPI 3M; APPI^3M; not shown: AvrII site residues and C-terminal HIS6 tag) EVCSEQAETGPCRAGFSRWYFDVTEGKCAPFVYGGCGGNRNNFDTEEYCMAVCGSAI
Reply: 0.000429
